Origin of values: ChEMBL document CHEMBL1221354

Task for the reader: assign each of the following compounds its reported IC50.

[in] Provide IC50, system UniProtKB Q7ZJM1, entry `O=C(NCCCN1CCN(C(=O)/C=C/c2ccc(Cl)cc2)CC1)c1ccc(O)c(O)c1`
[out] > 100 µM

[in] Provide IC50, system UniProtKB Q7ZJM1, entry `O=C(NCCCN1CCN(C(=O)/C=C/c2ccccc2)CC1)c1ccc(O)c(O)c1`
[out] > 100 µM

[in] Provide IC50, system UniProtKB Q7ZJM1, entry `O=C(NCCCN1CCN(C(=O)/C=C/c2ccccc2[N+](=O)[O-])CC1)c1cc(O)c(O)c(O)c1`
[out] 31.3 µM

###

Task for the reader: assign each of the following compounds its reported pIC50.
Hey, just a heads up that pIC50 is the negative log base 10 of the concentration in molar.

[in] Provide pIC50, system Human immunodeficiency virus type 1 integrase (Human immunodeficiency virus 1), entry `O=C(NCCCN1CCN(C(=O)/C=C/c2ccccc2)CC1)c1cc(O)c(O)c(O)c1`
[out] 4.89

[in] Provide pIC50, system Human immunodeficiency virus type 1 integrase (Human immunodeficiency virus 1), entry `O=C(NCCCN1CCN(C(=O)/C=C/c2ccc(Cl)cc2)CC1)c1cc(O)c(O)c(O)c1`
[out] 4.60

[in] Provide pIC50, system Human immunodeficiency virus type 1 integrase (Human immunodeficiency virus 1), entry `Cc1ccc(/C=C/C(=O)N2CCN(CCCNC(=O)c3cc(O)c(O)c(O)c3)CC2)cc1`
[out] 4.76

[in] Provide pIC50, system Human immunodeficiency virus type 1 integrase (Human immunodeficiency virus 1), entry `O=C(O)C(=O)CC(=O)c1cc(OCc2ccccc2)cc(OCc2ccccc2)c1`
[out] 6.11

[in] Provide pIC50, system Human immunodeficiency virus type 1 integrase (Human immunodeficiency virus 1), entry `O=C(NCCCN1CCN(C(=O)/C=C/c2ccccc2Cl)CC1)c1cc(O)c(O)c(O)c1`
[out] 4.72

[in] Provide pIC50, system Human immunodeficiency virus type 1 integrase (Human immunodeficiency virus 1), entry `O=C(NCCCN1CCN(C(=O)/C=C/c2cccc(O)c2)CC1)c1cc(O)c(O)c(O)c1`
[out] 4.81

###

These molecules were tested on Human immunodeficiency virus type 1 integrase (Human immunodeficiency virus 1); pIC50 is the recorded read-out.
Sequence (Q7ZJM1 whole entry): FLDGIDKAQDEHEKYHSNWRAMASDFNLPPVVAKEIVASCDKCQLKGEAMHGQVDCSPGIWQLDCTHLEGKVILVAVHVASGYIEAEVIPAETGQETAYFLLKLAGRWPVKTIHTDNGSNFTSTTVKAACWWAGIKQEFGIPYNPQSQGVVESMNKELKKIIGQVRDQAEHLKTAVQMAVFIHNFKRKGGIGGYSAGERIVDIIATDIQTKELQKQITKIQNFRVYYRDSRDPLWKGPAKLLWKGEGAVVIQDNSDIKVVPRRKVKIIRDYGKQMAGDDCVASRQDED
pIC50: −log10 of the molar value.

[in] Given `O=C(NCCCN1CCN(C(=O)/C=C/c2cccc(O)c2)CC1)c1ccc(O)c(O)c1` , respond with its pIC50.
[out] < 4.00

[in] Given `Cc1ccc(/C=C/C(=O)N2CCN(CCCNC(=O)c3ccc(O)c(O)c3)CC2)cc1` , respond with its pIC50.
[out] < 4.00

[in] Given `O=C(NCCCN1CCN(C(=O)/C=C/c2ccccc2Cl)CC1)c1ccc(O)c(O)c1` , respond with its pIC50.
[out] < 4.00
